system: ROCK II; test: Cigarette smoking-induced Rho/ROCK activation of rat pulmonary artery ring; type: in vivo; details: Intraperitoneal (100 mg/kg) 1 h prior to smoke exposure, Non-Smoking control 100, Smoking 530 ± 34
Where a name gives a salt, the structure may show the parent alone.

| molecule | ROCK II of pulmonary artery ring |
| --- | --- |
| Cl.Cn1c(=O)c2c(ncn2CCN2CCN(c3ccccc3Cl)CC2)n(C)c1=O | 76 |
| CCCc1nn(C)c2c(=O)[nH]c(-c3cc(S(=O)(=O)N4CCN(C)CC4)ccc3OCC)nc12 [Reagent 1004, Sildenafil citrate complex, reference compound] | 76 |
| CCCc1nn(C)c2c(=O)[nH]c(-c3cc(S(=O)(=O)N4CCN(C)CC4)ccc3OCC)nc12.O=C1OC(C(O)CO)C(O)=C1O [Reagent 1007, Sildenafil L-ascorbate complex] | 84 |
| CCCc1nn(C)c2c(=O)[nH]c(-c3cc(S(=O)(=O)N4CCN(C)CC4)ccc3OCC)nc12.Cl [Reagent 1003, Sildenafil HCl complex] | 82 |

###

compounds and their reported eNOS expression, Carvenosus
test system: eNOS; test: Western blotting of eNOS expression in rat carvenosus strip, acute hypoxia; assay type: cell-based; design: unit not given here; details: Normoxia 100, Hypoxia 62.4 ± 5.5
Where a name gives a salt, the structure may show the parent alone.
measured attribute: eNOS expression, Carvenosus

| compound | numeric result |
| --- | --- |
| CCCc1nn(C)c2c(=O)[nH]c(-c3cc(S(=O)(=O)N4CCN(C)CC4)ccc3OCC)nc12 [Reagent 1004, Sildenafil citrate complex, reference compound] | 125 |
| CCCCCCCC/C=C\CCCCCCCC(=O)O.COc1ccccc1N1CCN(CCn2cnc3c2c(=O)n(C)c(=O)n3C)CC1 [Example 7] | 122 |
| CCCc1nn(C)c2c(=O)[nH]c(-c3cc(S(=O)(=O)N4CCN(C)CC4)ccc3OCC)nc12.Cl [Reagent 1003, Sildenafil HCl complex] | 110 |

###

This listing pairs compounds with measured eNOS expression, Carvenosus.
system: eNOS; assay: Western blotting of eNOS expression in rat carvenosus strip, acute hypoxia; format: cell-based; set-up: unit not given here; conditions: Normoxia 100, Hypoxia 62.4 ± 5.5
measured attribute: eNOS expression, Carvenosus

| compound | measured attribute | result |
| --- | --- | --- |
| CCCc1nn(C)c2c(=O)[nH]c(-c3cc(S(=O)(=O)N4CCN(C)CC4)ccc3OCC)nc12.O=C(O)C=CC(=O)O [Reagent 1008, Sildenafil maleate complex] | eNOS expression, Carvenosus | 45 ± 4.2 |
| CCCc1nn(C)c2c(=O)[nH]c(-c3cc(S(=O)(=O)N4CCN(C)CC4)ccc3OCC)nc12.O=C(O)c1ccccc1O [Reagent 1016, Sildenafil-Salicylate complex] | eNOS expression, Carvenosus | 110 ± 4.7 |
| Cl.Cn1c(=O)c2c(ncn2CCN2CCN(c3ccccc3Cl)CC2)n(C)c1=O [Reagent 3] | eNOS expression, Carvenosus | 102 ± 5.8 |
| CC(O)C(=O)O.CCCc1nn(C)c2c(=O)[nH]c(-c3cc(S(=O)(=O)N4CCN(C)CC4)ccc3OCC)nc12 [Reagent 1011, Sildenafil lactate complex] | eNOS expression, Carvenosus | 46 ± 4.7 |
| Cn1c(=O)c2c(ncn2CCN2CCN(c3ccc([N+](=O)[O-])cc3)CC2)n(C)c1=O.O=C1O[C@H]([C@@H](O)CO)C(O)=C1O [Example 8] | eNOS expression, Carvenosus | 45 ± 4.2 |
| CCCc1nn(C)c2c(=O)[nH]c(-c3cc(S(=O)(=O)N4CCN(C)CC4)ccc3OCC)nc12.O=C(O)C(=O)O [Reagent 1015, Sildenafil oxalate complex] | eNOS expression, Carvenosus | 65 ± 4.7 |
